- Tested on: rodent lifetime carcinogenesis bioassay, tumor incidence TD50
- assayComment: carcinogenic potency in animals, long-term in vivo studies, CPDB compilation (AID 1745844)
- runParameters: mouse; strain B6C3F1; males; in feed; site: any site (literature study); lesion: several types; types named in the paper; dosed 103 weeks; study length 109 weeks
quantityKind: TD50 (mg/kg/day)
# output: bare number, implied unit mg/kg/day

Specify TD50 for "NCCCCCCCCCCC(=O)O" , system rodent lifetime carcinogenesis bioassay, tumor incidence TD50. 6500

* * *

- Tested on: rodent lifetime carcinogenesis bioassay, tumor incidence TD50
- assayComment: carcinogenic potency in animals, long-term in vivo studies, CPDB compilation (AID 1745844)
- runParameters: rat; strain Charles River CD (Sprague-Dawley); males; by gavage; site: cerebrum; lesion: malignant glioma; dosed 46 weeks; study length 60 weeks
quantityKind: TD50

Specify TD50 for "O=S1(=O)CCCO1" , system rodent lifetime carcinogenesis bioassay, tumor incidence TD50. 3.64 mg/kg/day
